# System: P. falciparum HB3 in RBCs, SYBR Green DNA fluorescence
# Experiment: growth inhibition of P. falciparum HB3, dose response, HB3 strain, red blood cells, SYBR Green, cherry-picked (AID 652041);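 note: parasites exposed to compound for 72 hours before the DNA read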
Listing of entries alongside the reported AC35.

Take a look at these entries with their results.
Clc1ccc(C(Cn2ccnc2)OCc2c(Cl)cccc2Cl)c(Cl)c1 (stereo unspecified): 2.36 µM
OCCN(CCO)c1cc2c3ccccc3ccc2c2ccccc12: 1.21 µM
CC(=O)Nc1cccc(NC(=O)CSc2ccc(-c3ccccn3)nn2)c1: 17 µM
CCCCC(=O)NC(c1ccco1)c1cc(Cl)c2cccnc2c1O (stereo unspecified): 1.62 µM
CCCCCOc1ccc(CSc2n[nH]c(C)n2)cc1: 8.7 µM

Turning now to a further compound:
Q. Quick one: AC35 for `CC/C(=N/NC(=O)c1ccccc1O)c1c(C)[nH]n(-c2ccccc2)c1=O` ?
A. 28.1 µM
